The measurements presented in this section are drawn from patent US10617678B2.

assay: Pharmacokinetics: whole blood concentrations after adventitial injection; type: in vivo, Yorkshire pigs; details: Yorkshire, pig, whole blood, 357 µg per artery (1.5 ml of 238 µg/ml); 1 hour after the first injection; read-out: mean temsirolimus level in whole blood
readout name: concentration at 1 h (ng/mL)
Numbers only, in ng/mL.

input: Endpoint output: concentration at 1 h of CO[C@H]1C[C@@H]2CC[C@@H](C)[C@@](O)(O2)C(=O)C(=O)N2CCCC[C@H]2C(=O)O[C@H]([C@H](C)C[C@@H]2CC[C@@H](OC(=O)C(C)(CO)CO)[C@H](OC)C2)CC(=O)[C@H](C)/C=C(\C)[C@@H](O)[C@@H](OC)C(=O)[C@H](C)C[C@H](C)/C=C/C=C/C=C/1C [temsirolimus] . Value?
output: 32.1

* * *

test: Pharmacokinetics: whole blood concentrations after adventitial injection; format: in vivo, Yorkshire pigs; conditions: Yorkshire, pig, whole blood, 357 µg per artery (1.5 ml of 238 µg/ml); 24 hours; read-out: mean temsirolimus level in whole blood
readout name: concentration at 24 h (ng/mL)
Give bare numbers, in ng/mL.

input: Endpoint output: concentration at 24 h of CO[C@H]1C[C@@H]2CC[C@@H](C)[C@@](O)(O2)C(=O)C(=O)N2CCCC[C@H]2C(=O)O[C@H]([C@H](C)C[C@@H]2CC[C@@H](OC(=O)C(C)(CO)CO)[C@H](OC)C2)CC(=O)[C@H](C)/C=C(\C)[C@@H](O)[C@@H](OC)C(=O)[C@H](C)C[C@H](C)/C=C/C=C/C=C/1C [temsirolimus] . Value?
output: 2.4
